target: CREB-binding protein (Homo sapiens, UniProt Q92793); assay: Affinity Phenotypic Cellular interaction (Inhibition of H3K27Ac (DU-145 cells)) EUB0000326a CREBBP
Sequence (Q92793 whole entry): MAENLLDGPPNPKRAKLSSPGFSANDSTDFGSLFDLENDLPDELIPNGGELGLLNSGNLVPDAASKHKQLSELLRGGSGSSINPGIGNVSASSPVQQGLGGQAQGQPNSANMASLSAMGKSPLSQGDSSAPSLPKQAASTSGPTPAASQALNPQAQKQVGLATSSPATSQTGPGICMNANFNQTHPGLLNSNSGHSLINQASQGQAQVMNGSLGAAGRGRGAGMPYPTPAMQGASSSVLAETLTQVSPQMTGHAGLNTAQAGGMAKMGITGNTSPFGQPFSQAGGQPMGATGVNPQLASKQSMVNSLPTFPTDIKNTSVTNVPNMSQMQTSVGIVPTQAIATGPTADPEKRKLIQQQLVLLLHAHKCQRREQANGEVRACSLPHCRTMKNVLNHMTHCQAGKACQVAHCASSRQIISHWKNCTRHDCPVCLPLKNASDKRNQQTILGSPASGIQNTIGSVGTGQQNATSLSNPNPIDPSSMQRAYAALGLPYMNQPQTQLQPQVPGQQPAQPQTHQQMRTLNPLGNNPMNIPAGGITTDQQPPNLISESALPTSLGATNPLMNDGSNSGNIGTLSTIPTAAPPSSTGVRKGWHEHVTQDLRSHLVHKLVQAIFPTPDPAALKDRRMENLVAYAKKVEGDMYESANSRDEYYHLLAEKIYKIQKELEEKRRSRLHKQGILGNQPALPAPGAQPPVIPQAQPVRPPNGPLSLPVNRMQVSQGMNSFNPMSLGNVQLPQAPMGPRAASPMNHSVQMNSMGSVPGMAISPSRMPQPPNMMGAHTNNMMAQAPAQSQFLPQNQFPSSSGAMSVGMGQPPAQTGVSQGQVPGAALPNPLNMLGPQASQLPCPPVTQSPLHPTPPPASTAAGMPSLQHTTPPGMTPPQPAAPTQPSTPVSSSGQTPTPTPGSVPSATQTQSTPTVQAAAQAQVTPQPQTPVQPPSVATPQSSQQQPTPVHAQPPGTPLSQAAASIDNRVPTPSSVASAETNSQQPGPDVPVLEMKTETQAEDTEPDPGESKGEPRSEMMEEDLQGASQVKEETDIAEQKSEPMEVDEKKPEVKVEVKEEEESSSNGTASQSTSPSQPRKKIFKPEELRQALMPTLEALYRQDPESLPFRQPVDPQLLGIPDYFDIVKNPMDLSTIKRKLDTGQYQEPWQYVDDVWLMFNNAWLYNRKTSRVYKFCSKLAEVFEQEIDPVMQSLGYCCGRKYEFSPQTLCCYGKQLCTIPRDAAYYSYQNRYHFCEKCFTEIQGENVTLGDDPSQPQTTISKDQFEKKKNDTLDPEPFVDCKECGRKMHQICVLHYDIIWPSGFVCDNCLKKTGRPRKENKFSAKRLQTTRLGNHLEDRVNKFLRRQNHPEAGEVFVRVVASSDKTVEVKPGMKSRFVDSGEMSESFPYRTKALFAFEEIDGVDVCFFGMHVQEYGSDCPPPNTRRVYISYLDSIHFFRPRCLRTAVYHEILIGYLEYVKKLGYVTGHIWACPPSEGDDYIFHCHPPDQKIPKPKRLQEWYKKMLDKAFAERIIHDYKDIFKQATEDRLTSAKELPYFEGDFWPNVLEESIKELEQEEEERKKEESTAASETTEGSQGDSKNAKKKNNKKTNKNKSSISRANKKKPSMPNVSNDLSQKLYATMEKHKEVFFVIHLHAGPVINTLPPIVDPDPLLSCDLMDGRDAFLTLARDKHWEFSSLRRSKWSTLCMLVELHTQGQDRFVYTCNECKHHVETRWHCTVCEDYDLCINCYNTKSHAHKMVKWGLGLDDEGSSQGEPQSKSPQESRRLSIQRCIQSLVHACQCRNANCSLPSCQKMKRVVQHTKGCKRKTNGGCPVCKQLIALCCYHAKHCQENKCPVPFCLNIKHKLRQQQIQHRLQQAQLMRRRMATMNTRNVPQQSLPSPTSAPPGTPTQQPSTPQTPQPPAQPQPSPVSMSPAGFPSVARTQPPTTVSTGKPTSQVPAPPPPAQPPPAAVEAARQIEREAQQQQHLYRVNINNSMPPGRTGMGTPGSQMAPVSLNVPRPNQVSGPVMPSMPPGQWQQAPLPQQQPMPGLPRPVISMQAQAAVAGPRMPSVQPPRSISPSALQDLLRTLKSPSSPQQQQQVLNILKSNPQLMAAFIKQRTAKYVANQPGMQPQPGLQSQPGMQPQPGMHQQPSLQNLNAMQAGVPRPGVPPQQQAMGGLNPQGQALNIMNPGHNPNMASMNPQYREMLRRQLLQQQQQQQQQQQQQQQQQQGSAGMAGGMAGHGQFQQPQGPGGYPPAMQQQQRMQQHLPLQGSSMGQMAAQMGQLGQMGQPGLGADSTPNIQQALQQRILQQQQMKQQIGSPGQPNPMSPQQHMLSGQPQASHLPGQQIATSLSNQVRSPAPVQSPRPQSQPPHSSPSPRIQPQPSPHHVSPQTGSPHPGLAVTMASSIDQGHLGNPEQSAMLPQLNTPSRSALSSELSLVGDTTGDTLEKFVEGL
pIC50: −log10 of the molar value.

| smiles entry | tested on | pIC50 |
| --- | --- | --- |
| CNC(=O)Nc1ccc2c(c1)[C@@]1(CC2)OC(=O)N(CC(=O)N(Cc2ccc(F)cc2)[C@@H](C)C(F)(F)F)C1=O | CREB-binding protein (Homo sapiens, UniProt Q92793) | < 5.00 |

---

biological target: Phosphatidylinositol 4,5-bisphosphate 3-kinase catalytic subunit beta isoform (Homo sapiens, UniProt P42338); experiment: Affinity Phenotypic Cellular interaction (MesoScale Discovery assay (AKT phoshorylation in MCF 7 cells)) EUB0000685a PIK3CB
pIC50: −log10 of the molar value.
measurement label: pIC50

| smiles entry | measurement label | numeric readout |
| --- | --- | --- |
| Cc1nc(-c2cn3c(n2)-c2ccc(-c4cnn(C(C)(C)C(N)=O)c4)cc2OCC3)n(C(C)C)n1 | pIC50 | 8.40 |

---

molecular target: Bromodomain adjacent to zinc finger domain protein 2A (Homo sapiens); test: Affinity Phenotypic Cellular interaction (FRAP assay (displacement of BAZ2A/B from chromatin in SAHA-treated human U2OS cells, transfected with GFP-BAZ2A fusion construct)) EUB0000267b BAZ2A; design: mode of action Negative control for GSK2801, recommended concentration 1 uM
pIC50: −log10 of the molar value.
measurement label: pIC50

| smiles entry | measurement label | result |
| --- | --- | --- |
| CCCOc1ccn2c(C(C)=O)cc(-c3cccc(OC)c3)c2c1 | pIC50 | < 4.00 |

---

Target: C-C chemokine receptor type 1 (Homo sapiens, UniProt P32246)
Sequence (P32246 whole entry): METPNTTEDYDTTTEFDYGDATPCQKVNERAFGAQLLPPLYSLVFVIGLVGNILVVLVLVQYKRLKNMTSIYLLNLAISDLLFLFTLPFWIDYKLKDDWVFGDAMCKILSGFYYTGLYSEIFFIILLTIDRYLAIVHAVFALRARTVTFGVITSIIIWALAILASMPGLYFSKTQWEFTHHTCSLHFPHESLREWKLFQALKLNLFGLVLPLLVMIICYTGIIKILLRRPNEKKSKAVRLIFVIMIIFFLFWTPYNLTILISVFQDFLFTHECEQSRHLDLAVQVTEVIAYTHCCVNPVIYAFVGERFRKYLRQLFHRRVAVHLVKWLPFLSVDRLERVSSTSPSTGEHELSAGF
Experiment: Affinity Phenotypic Cellular interaction (Functional cellular assay (measuring calcium flux in response to MIP-1a in CCR1-transfected cells)) EUB0000343a CCR1

| smiles entry | IC50 |
| --- | --- |
| CS(=O)(=O)NCC[C@H](NC(=O)c1cncc2c1cnn2-c1ccc(F)cc1)c1ccnc(S(C)(=O)=O)c1 | > 3 µM |

---

target: Ribosomal protein S6 kinase alpha-1 (Homo sapiens); assay: Affinity Phenotypic Cellular interaction (Cellular mechanistic pACC assay using IMR-32 neuroblastoma cells) EUB0000707a RPS6KA1

| smiles entry | tested on | IC50 |
| --- | --- | --- |
| CC1=C(C#N)C(c2ccc3c(c2)c(NC(=O)c2ccccc2C)nn3C)C(C#N)=C(C)N1 | Ribosomal protein S6 kinase alpha-1 (Homo sapiens) | > 30 µM |

---

target: MAP kinase-activated protein kinase 5 (Homo sapiens, UniProt Q8IW41); assay: Affinity Phenotypic Cellular interaction (Cell-based TNFa assay (MesoScale Discovery; inhibition of LPS stimulated TNFa production in human U937 cells)) EUB0000056c MAPKAPK5
Sequence (Q8IW41 whole entry): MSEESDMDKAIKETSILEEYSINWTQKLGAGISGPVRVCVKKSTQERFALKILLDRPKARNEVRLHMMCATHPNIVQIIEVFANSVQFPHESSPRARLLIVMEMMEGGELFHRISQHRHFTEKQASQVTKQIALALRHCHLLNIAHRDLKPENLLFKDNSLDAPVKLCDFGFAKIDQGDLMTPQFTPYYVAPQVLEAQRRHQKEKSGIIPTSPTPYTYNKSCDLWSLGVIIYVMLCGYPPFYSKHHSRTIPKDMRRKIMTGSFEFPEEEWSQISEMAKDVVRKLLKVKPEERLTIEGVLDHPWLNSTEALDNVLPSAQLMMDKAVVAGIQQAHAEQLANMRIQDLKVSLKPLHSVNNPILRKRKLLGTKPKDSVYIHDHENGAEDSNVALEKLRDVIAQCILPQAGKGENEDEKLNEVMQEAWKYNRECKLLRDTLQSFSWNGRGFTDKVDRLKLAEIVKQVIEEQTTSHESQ
measurement label: IC50 (nM)

| smiles entry | measurement label | value units | numeric readout |
| --- | --- | --- | --- |
| Cc1ccc(-c2ccc3c(ccc4sc5c(c43)NC[C@@H](C)NC5=O)n2)cn1 | IC50 | nM | 159 |

---

molecular target: Methionine aminopeptidase 2 (Homo sapiens, UniProt P50579); test: Affinity Phenotypic Cellular interaction (Western Blot (acumulation of Nmet14-3-3gamma in HUVEC cells)) EUB0000303b METAP2
Sequence (P50579 whole entry): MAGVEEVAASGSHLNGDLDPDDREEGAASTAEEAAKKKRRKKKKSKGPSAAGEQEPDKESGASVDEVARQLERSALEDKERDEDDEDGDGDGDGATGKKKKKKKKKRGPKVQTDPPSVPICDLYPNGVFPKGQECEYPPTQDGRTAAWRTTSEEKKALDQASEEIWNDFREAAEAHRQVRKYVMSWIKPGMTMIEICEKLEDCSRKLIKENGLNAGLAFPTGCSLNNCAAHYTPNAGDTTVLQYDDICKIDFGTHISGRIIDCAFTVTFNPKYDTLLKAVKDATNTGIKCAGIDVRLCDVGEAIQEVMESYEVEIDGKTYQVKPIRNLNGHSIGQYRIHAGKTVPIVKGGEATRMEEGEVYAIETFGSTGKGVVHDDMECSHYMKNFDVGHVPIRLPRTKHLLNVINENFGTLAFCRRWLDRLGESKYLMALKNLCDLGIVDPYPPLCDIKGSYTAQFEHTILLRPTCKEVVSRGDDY
pEC50: −log10 of the molar value.

| smiles entry | pEC50 |
| --- | --- |
| Cc1nc(N2CC[C@H](O)C2)ncc1-c1cc(C(F)(F)F)cc2[nH]ncc12 | 7.82 |

---

biological target: Serine/threonine-protein kinase PLK1 (Homo sapiens, UniProt P53350); experiment: Affinity Phenotypic Cellular interaction (Immunoblot activity assay (using LAP-Mps1 WT in U2OS cells)) EUB0000608a PLK1
pIC50: −log10 of the molar value.

| smiles entry | tested on | pIC50 |
| --- | --- | --- |
| CCOc1cc(N2CCC(O)CC2)ccc1Nc1ncc2c(n1)N(C1CCCC1)CCC(=O)N2C | Serine/threonine-protein kinase PLK1 (Homo sapiens, UniProt P53350) | 6.80 |

---

molecular target: Rho-associated protein kinase 2 (Homo sapiens); experiment: Affinity Phenotypic Cellular interaction (Western Blot (phosphorylation of MYPT at Thr850 in HEK293 cells)) EUB0000134b ROCK2
measurement label: IC50

| compound | result |
| --- | --- |
| CC1=C(C(=O)Nc2cc3cn[nH]c3cc2F)C(c2ccc(C(F)(F)F)cc2)CC(=O)N1 (stereo unspecified) | < 10 µM |

---

molecular target: Histone-lysine N-methyltransferase EHMT1 (Homo sapiens); test: Affinity Phenotypic Cellular interaction (In-Cell Western assay (H3K9Me2 antibody immunofluorescence in PC3 cells)) EUB0000212b EHMT1/GLP; type: cell-based; set-up: mode of action Inhibitor, recommended concentration 1 uM
pEC50: −log10 of the molar value.
measurement label: pEC50

| smiles entry | result |
| --- | --- |
| COc1cc2c(cc1OCCCN1CCCC1)N=C(N)C21CCC1 | > 5.52 |

---

Biological target: Aurora kinase C (Homo sapiens)
Sequence (Q9UQB9 whole entry): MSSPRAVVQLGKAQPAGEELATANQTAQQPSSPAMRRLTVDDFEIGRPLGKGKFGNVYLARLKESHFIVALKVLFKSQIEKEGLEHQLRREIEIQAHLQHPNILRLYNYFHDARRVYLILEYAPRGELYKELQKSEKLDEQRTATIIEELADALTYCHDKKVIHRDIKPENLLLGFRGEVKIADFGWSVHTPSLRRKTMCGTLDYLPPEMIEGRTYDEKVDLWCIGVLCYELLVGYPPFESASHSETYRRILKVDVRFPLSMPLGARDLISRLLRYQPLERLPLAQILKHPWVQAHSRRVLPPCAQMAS
Assay: Affinity Phenotypic Cellular interaction (ELISA (histone H3 serine phosphorylation in A549 cells)) EUB0000674a AURKC
pEC50: −log10 of the molar value.

| smiles entry | pEC50 |
| --- | --- |
| CCn1cc(-c2ccnc3[nH]c(-c4cccc(CN(C)C)c4)cc23)c(-c2ccc(NC(=O)N(C)C)cc2)n1 | 7.34 |

---

molecular target: 5'-AMP-activated protein kinase catalytic subunit alpha-1 (Homo sapiens, UniProt Q13131); experiment: Affinity Phenotypic Cellular interaction (Cellular mechanistic pACC assay using IMR-32 neuroblastoma cells) EUB0000707a PRKAA1
measurement label: IC50

| smiles entry | result |
| --- | --- |
| CC1=C(C#N)C(c2ccc3c(c2)c(NC(=O)c2ccccc2C)nn3C)C(C#N)=C(C)N1 | > 30 µM |

---

target: Calcium/calmodulin-dependent protein kinase kinase 2 (Homo sapiens, UniProt Q96RR4); test: Affinity Phenotypic Cellular interaction (Western Blot (downstream phosphorylation of AMPK in C4-2 cells)) EUB0000167b CAMKK2; assay type: cell-based; set-up: mode of action Inhibitor, recommended concentration 1 uM

| smiles entry | value units | IC50 |
| --- | --- | --- |
| Cc1cccc(-c2cnc3occ(-c4ccc(C(=O)O)c(C5CCCC5)c4)c3c2)c1 | nM | 1600 |

---

target: Phosphatidylinositol 4,5-bisphosphate 3-kinase catalytic subunit gamma isoform (Homo sapiens, UniProt P48736); assay: Affinity Phenotypic Cellular interaction (Inhibition of pAKT-S473 in T47D breast cancer lines) EUB0000691a PIK3CG; parameters: mode of action Inhibitor, recommended concentration 100 nM
pIC50: −log10 of the molar value.
measurement label: pIC50

| smiles entry | measurement label | numeric readout |
| --- | --- | --- |
| COc1ncc(-c2ccc3nccc(-c4ccnnc4)c3c2)cc1NS(=O)(=O)c1ccc(F)cc1F | pIC50 | 9.39 |

---

molecular target: Lysine-specific demethylase 6A (Homo sapiens, UniProt O15550); assay: Affinity Phenotypic Cellular interaction (Inhibition of TNF release (in LPS stimulated human macrophages derived from PBMC)) EUB0000217b KDM6A/UTX
Sequence (O15550 whole entry): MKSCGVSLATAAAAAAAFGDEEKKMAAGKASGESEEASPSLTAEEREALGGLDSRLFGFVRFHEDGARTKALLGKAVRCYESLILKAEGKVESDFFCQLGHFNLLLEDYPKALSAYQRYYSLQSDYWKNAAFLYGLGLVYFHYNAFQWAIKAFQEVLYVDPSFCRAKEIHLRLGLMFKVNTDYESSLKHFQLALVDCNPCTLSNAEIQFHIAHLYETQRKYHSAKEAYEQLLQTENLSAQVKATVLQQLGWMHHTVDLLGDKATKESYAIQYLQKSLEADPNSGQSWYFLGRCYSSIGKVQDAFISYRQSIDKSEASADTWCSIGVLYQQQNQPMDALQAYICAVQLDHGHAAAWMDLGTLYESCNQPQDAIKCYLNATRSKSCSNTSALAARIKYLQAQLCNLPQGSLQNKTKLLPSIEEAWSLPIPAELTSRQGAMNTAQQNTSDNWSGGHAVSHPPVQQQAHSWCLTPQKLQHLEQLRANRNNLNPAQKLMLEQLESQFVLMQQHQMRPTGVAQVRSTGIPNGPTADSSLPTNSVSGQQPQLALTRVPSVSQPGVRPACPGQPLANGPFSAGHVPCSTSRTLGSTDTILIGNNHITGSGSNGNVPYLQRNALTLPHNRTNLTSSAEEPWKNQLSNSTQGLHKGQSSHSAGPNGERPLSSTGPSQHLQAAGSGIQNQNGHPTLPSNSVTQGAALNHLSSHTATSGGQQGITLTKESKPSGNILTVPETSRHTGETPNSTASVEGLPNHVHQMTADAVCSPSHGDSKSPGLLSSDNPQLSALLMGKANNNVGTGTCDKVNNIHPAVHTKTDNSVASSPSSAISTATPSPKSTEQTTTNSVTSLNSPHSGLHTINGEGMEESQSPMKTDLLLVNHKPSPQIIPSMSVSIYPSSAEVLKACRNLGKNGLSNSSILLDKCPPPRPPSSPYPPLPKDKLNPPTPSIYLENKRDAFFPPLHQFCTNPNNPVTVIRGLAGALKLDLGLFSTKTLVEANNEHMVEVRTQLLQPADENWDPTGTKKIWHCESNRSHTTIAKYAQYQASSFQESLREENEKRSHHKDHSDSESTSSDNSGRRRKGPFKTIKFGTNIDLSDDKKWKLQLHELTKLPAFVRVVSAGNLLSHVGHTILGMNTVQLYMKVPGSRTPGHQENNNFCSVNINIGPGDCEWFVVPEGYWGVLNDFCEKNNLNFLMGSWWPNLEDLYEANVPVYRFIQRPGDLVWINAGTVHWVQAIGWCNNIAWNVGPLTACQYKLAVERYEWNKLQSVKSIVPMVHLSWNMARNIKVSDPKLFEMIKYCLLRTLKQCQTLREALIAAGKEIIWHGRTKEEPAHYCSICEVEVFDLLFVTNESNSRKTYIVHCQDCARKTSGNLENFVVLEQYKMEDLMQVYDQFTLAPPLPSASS
measurement label: IC50 (µM)

| smiles entry | tested on | numeric readout |
| --- | --- | --- |
| CCOC(=O)CCNc1cc(N2CCc3ccccc3CC2)nc(-c2ccccn2)n1 | Lysine-specific demethylase 6A (Homo sapiens, UniProt O15550) | 9 |
